# System: Escherichia coli ATCC 10536
# Assay: "In vitro" MIC, Escherichia coli ATCC 10536
# Format: cell-based
# Experimental Parameters: ATCC10536; Escherichia coli ATCC 10536; dextrose agar, 37° C., 20 hours; read-out: "In vitro" MIC
Consider the following molecules and their measured MIC readings.
API: value field is a number in µg/mL; no unit string.

- Molecule: "C=Cn1cc(C(=O)O)c(=O)c2cc(F)c(-n3cccc3)cc21 [Example 3]"
  MIC (µg/mL): 0.125
- Molecule: "O=C(O)c1cn(CC2CC2)c2cc(-n3cccc3)c(F)cc2c1=O [Example 4]"
  MIC (µg/mL): 0.25
- Molecule: "CCCn1cc(C(=O)O)c(=O)c2cc(F)c(-n3cccc3)cc21 [Example 5]"
  MIC (µg/mL): 0.5
- Molecule: "Cn1cc(C(=O)O)c(=O)c2cc(F)c(-n3cccc3)cc21 [Example 1]"
  MIC (µg/mL): 0.05
- Molecule: "CCNn1cc(C(=O)O)c(=O)c2cc(F)c(-n3cccc3)cc21 [Example 8]"
  MIC (µg/mL): 0.062

Now consider a different molecule.
Recorded MIC for O=C(O)c1cn(CCO)c2cc(-n3cccc3)c(F)cc2c1=O [Example 2] , please?
0.125
